Let's look at some compounds and their measured viability, T/C.
- Test system: 966289-007-R4-J1-PDC complex spheroid viability;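 note: spheroids exposed to the agents for seven days before readout; percent viability relative to DMSO vehicle control wells taken as 100%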
- Test name: Anticancer human tumor 966289-007-R4-J1-PDC patient-derived pancreatic adenocarcinoma cell line growth inhibition [GQUAD]
- Measurement conditions: second compound 10 µM; first compound 0.316 µM; stronger effect = lower value
Write the value in % as a bare number.

Example cases with answers are listed next.
Compound | Unit spec | viability, T/C
CC1COCCN1c1cc(C2(O)CC3CCC(C2)O3)c2cnn(-c3ccn[nH]3)c2n1 (stereo not given) + Cc1cnc(CNC(=O)c2c(=O)c3ccc(N4CCCN(C)CC4)nc3n3c2sc2ccccc23)cn1 | % | 0.11
COc1cc(C2c3cc4c(cc3C(OC3OC5COC(C)OC5C(O)C3O)C3COC(=O)C23)OCO4)cc(OC)c1O (stereo not given) + Cc1cnc(CNC(=O)c2c(=O)c3ccc(N4CCCN(C)CC4)nc3n3c2sc2ccccc23)cn1 | % | 0.09
COc1cccc2c1C(=O)c1c(O)c3c(c(O)c1C2=O)CC(O)(C(=O)CO)CC3OC1CC(N)C(O)C(C)O1 (stereo not given) + CN(C)c1ccc(Nc2c3ccc(NC(=O)CCN4CCCC4)cc3nc3cc(NC(=O)CCN4CCCC4)ccc23)cc1 | % | 1.38
CC1COCCN1c1cc(C2(O)CC3CCC(C2)O3)c2cnn(-c3ccn[nH]3)c2n1 (stereo not given) + CN(C)c1ccc(Nc2c3ccc(NC(=O)CCN4CCCC4)cc3nc3cc(NC(=O)CCN4CCCC4)ccc23)cc1 | % | 12.7

Query: Identify the reported viability, T/C for the following entry. O=c1[nH]cc(F)c(=O)[nH]1 + CN(C)c1ccc(Nc2c3ccc(NC(=O)CCN4CCCC4)cc3nc3cc(NC(=O)CCN4CCCC4)ccc23)cc1
Reply: 14.6
